All figures here come from patent US5945429A.

- TEST TARGET: farnesyl protein transferase (Homo sapiens, UniProt P49354+P49356)
- EXPERIMENT NOTES: FPT inhibition, in vitro enzyme assay (K-ras)
- Format: biochemical
MEASURED QUANTITY: IC50 (nM)

INSERT INTO assay_data (smiles_text, test_target, measured_quantity, measured_result) VALUES
  ('CCCS(=O)(=O)N1CCC(CC(=O)N2CCC([C@H]3c4ncc(Br)cc4CCc4cc(Cl)cc(Br)c43)CC2)CC1', 'farnesyl protein transferase (Homo sapiens, UniProt P49354+P49356)', 'IC50', 14.2),
  ('CCS(=O)(=O)N1CCC(CC(=O)N2CCC([C@H]3c4ncc(Br)cc4CCc4cc(Cl)cc(Br)c43)CC2)CC1', 'farnesyl protein transferase (Homo sapiens, UniProt P49354+P49356)', 'IC50', 16.4);

[P] CC1(C)[C@@H]2CC[C@@]1(CS(=O)(=O)N1CCC(CC(=O)N3CCC([C@H]4c5ncc(Br)cc5CCc5cc(Cl)cc(Br)c54)CC3)CC1)C(=O)C2
[Q] CC(C)S(=O)(=O)N1CCC(CC(=O)N2CCC([C@H]3c4ncc(Br)cc4CCc4cc(Cl)cc(Br)c43)CC2)CC1
*Q* Smaller IC50 value? Options are P and Q Field: selected label. Fill in the label of the entry you choose.
*A* Q
(Q: 22.9 nM, P: 52.5 nM)
